# runParameters: in ethyl acetate, 323.15 K
parameter: solubility (mole fraction)

{"molecule": "CC(=O)N[C@@H](C)C(=O)O", "parameter": "solubility (mole fraction)", "assayResult": 0.0156}

---

# runParameters: in isopropanol, 323.15 K

{"molecule": "CC(=O)N[C@@H](C)C(=O)O", "solubility (mole fraction)": 0.195}

---

# runParameters: in 2-butanone, 283.15 K

{"molecule": "CC(=O)N[C@@H](C)C(=O)O", "solubility (mole fraction)": 0.0111}

---

# runParameters: in dimethyl carbonate, 323.15 K

{"molecule": "CC(=O)N[C@@H](C)C(=O)O", "solubility (mole fraction)": 0.0103}
